# ASSAY: Pharmacokinetics after oral administration
# Assay type: in vivo
# RUN PARAMETERS: rat, plasma; rats; oral 100 mg/kg versus IV 30 mg/kg; read-out: BIOAVAILABILITY F
MEASURED ENDPOINT: bioavailability (%)

[[record]]
cpd_smiles = "CN1CCN(c2ccc(Nc3ncc4c(n3)N(C3CCCC3)C(=O)[C@]3(CCNC3=O)C4)cc2F)CC1"
measured_endpoint = "bioavailability"
result = 43.9

[[record]]
cpd_smiles = "CC(C)N1CCN(c2ccc(Nc3ncc4c(n3)N(C3CCCC3)C(=O)[C@]3(CCNC3=O)C4)cc2)CC1"
measured_endpoint = "bioavailability"
result = 43.8

[[record]]
cpd_smiles = "CN(C)CCOc1ccc(Nc2ncc3c(n2)N(C2CCCC2)C(=O)[C@]2(CCNC2=O)C3)cc1"
measured_endpoint = "bioavailability"
result = 36.3


* * *

# STUDY TARGET: UniProtKB P50613
# ASSAY: CDK inhibition assay (microfluidic LabChip, IC50 format)
# Type: biochemical
# RUN PARAMETERS: Table 4a
pIC50: −log10 of the molar value.
MEASURED ENDPOINT: pIC50

Below, 4 compounds whose answers are already recorded.
[[record]]
cpd_smiles = "Cc1cc(N2CCN(C)CC2)ccc1Nc1ncc2c(n1)N(C1CCCC1)C(=O)[C@]1(CCNC1=O)C2"
result = 5.58

[[record]]
cpd_smiles = "O=C1NCC[C@@]12Cc1cnc(Nc3ccc(N4CCNCC4)cn3)nc1N(C1CCCC1)C2=O"
result = 4.72

[[record]]
cpd_smiles = "Cc1cc(Nc2ncc3c(n2)N(C2CCCC2)C(=O)[C@]2(CCNC2=O)C3)ccc1N1CCN(C(C)C)CC1"
result = 6.92

[[record]]
cpd_smiles = "COc1cc(Nc2ncc3c(n2)N(C2CCCC2)C(=O)[C@]2(CCNC2=O)C3)ccc1N1CCN(C(C)C)CC1"
result = 6.80


P = O=C1NCC[C@@]12Cc1cnc(Nc3ccc(N4CCNCC4)cc3F)nc1N(C1CCCC1)C2=O
Q = CN(C)[C@H]1CCN(c2ccc(Nc3ncc4c(n3)N(C3CCCC3)C(=O)[C@]3(CCNC3=O)C4)cc2)C1
-- ask Please state the entry with greater pIC50 among P and Q . Reply briefly: the label of your chosen item.
-- reply Q
(Q: 6.30, P: 5.95)

* * *

# STUDY TARGET: CDK2-CYCLINA (Homo sapiens, UniProt P24941)
# Construct: purchased Millipore
# ASSAY: CDK inhibition assay (microfluidic LabChip, IC50 format)
# Format: biochemical
# RUN PARAMETERS: Table 4b, lower part; read-out: CDK2 CyclinA IC50
MEASURED ENDPOINT: IC50 (µM)

Sample records with IC50:
[[record]]
cpd_smiles = "CN1CCC(c2ccc(Nc3ncc4c(n3)N(C3CCCC3)C(=O)[C@]3(CCNC3=O)C4)cc2)CC1"
result = 0.0898

[[record]]
cpd_smiles = "O=C1NCC[C@@]12Cc1cnc(Nc3ccc(OCCO)cc3)nc1N(C1CCCC1)C2=O"
result = 0.0313


A = O=C1NCC[C@@]12Cc1cnc(Nc3ccc(N4CCC(N5CCOCC5)CC4)cc3)nc1N(C1CCCC1)C2=O
B = CC(C)N1CCN(c2ccc(Nc3ncc4c(n3)N(C35CC(C3)C5)C(=O)[C@]3(CCNC3=O)C4)cc2)CC1
-- ask For the pair A and B , which entry has the numerically smaller recorded IC50? Please respond with the label that marks your chosen entry.
-- reply A

* * *

# STUDY TARGET: CDK7 CyclinH (Homo sapiens)
# Sequence (P50613 whole entry): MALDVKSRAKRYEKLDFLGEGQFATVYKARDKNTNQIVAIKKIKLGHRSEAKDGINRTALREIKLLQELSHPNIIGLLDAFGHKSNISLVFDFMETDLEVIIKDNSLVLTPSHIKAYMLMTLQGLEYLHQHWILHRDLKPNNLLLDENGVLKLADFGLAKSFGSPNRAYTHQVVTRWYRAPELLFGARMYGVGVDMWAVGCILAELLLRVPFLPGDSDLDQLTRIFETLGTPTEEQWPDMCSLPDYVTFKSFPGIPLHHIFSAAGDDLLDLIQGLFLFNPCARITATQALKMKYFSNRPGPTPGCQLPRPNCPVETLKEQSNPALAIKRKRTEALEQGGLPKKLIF
# Sequence (P51946 whole entry partner): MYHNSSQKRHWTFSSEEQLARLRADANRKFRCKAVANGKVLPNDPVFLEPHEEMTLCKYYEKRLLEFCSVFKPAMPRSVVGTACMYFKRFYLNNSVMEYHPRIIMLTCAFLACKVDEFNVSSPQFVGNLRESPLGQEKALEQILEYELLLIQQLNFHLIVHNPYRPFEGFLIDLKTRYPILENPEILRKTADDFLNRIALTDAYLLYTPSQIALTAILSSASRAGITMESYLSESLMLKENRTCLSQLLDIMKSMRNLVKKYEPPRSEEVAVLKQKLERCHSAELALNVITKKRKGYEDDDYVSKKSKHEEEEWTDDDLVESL
# Sequence (P51948 whole entry partner): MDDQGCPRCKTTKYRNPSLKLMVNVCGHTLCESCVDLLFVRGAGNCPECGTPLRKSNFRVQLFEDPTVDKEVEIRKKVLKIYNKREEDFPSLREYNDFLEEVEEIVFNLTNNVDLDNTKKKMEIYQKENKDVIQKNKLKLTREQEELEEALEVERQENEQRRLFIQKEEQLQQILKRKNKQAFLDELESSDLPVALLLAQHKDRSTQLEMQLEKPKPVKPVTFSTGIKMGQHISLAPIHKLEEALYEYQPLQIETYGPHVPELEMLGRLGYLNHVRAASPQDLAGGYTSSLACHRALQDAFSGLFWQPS
# ASSAY: CDK inhibition assay (microfluidic LabChip, IC50 format)
# Format: biochemical
# RUN PARAMETERS: Table 4a
MEASURED ENDPOINT: IC50 (µM)

Look over these answered cases.
[[record]]
cpd_smiles = "CN1CCN(c2ccc(Nc3ncc4c(n3)N(C3CCCC3)C(=O)[C@]3(CCNC3=O)C4)cn2)CC1"
units = "µM"
result = 0.402

[[record]]
cpd_smiles = "CCN1CCN(Cc2ccc(Nc3ncc4c(n3)N(C3CCCC3)C(=O)[C@]3(CCNC3=O)C4)nc2)CC1"
units = "µM"
result = 14.7

[[record]]
cpd_smiles = "Cc1cc(Nc2ncc3c(n2)N(C2CCCC2)C(=O)[C@]2(CCNC2=O)C3)ccc1N1CCNCC1"
units = "µM"
result = 0.166


a = O=C1NCC[C@@]12Cc1cnc(Nc3ccc(-c4cn[nH]c4)cc3)nc1N(C1CCCC1)C2=O
b = O=C1NCC[C@@]12Cc1cnc(Nc3ccc(N4CCNCC4)nc3)nc1N(C1CCCC1)C2=O
-- ask Could you check which of a and b has a smaller value for IC50? Respond with the label that goes with your answer.
-- reply b

I = Cc1cc(N2CCN(C(C)C)CC2)ccc1Nc1ncc2c(n1)N(C1CCCC1)C(=O)[C@]1(CCNC1=O)C2
II = COc1cc(N2CCN(C)CC2)ccc1Nc1ncc2c(n1)N(C1CCCC1)C(=O)[C@]1(CCNC1=O)C2
-- ask Among I and II , whose measured IC50 is the smaller figure? Field: selected label. Fill in the label of the entry you choose.
-- reply I

* * *

# STUDY TARGET: CDK4-CYCLIND1 (Homo sapiens)
# Sequence (P11802 whole entry): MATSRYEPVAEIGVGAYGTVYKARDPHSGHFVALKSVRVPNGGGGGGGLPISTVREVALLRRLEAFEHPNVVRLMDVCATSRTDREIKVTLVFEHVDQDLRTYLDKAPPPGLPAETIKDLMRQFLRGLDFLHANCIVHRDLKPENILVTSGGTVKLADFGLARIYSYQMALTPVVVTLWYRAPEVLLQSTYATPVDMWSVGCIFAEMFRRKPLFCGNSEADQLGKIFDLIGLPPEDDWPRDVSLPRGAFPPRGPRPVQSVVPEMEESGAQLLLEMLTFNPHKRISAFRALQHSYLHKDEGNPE
# Sequence (P24385 whole entry partner): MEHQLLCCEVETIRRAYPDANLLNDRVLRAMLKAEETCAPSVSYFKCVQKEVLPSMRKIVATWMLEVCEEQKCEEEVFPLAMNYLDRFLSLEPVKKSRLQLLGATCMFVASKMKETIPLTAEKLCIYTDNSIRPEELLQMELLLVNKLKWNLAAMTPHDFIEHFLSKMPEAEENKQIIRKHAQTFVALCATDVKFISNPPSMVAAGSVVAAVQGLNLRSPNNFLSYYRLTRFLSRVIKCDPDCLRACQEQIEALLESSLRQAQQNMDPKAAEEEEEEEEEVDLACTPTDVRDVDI
# ASSAY: CDK inhibition assay (microfluidic LabChip, IC50 format)
# RUN PARAMETERS: Racemate Activity CDK4, Table 3; first value of the cell CDK4/CDK6; value of the racemate
pIC50: −log10 of the molar value.
MEASURED ENDPOINT: pIC50

[[record]]
compound = "O=C1NCCC12Cc1cnc(Nc3ccc(N4CCNCC4)cc3)nc1N(C1CCCC1)C2=O (stereo not shown)"
result = 8.55

[[record]]
compound = "CN1CCN(c2ccc(Nc3ncc4c(n3)N(C3CCCC3)C(=O)C3(CCNC3=O)C4)cc2F)CC1 (stereo not shown)"
result = 8.74

[[record]]
compound = "CC(C)N1CCN(c2ccc(Nc3ncc4c(n3)N(C3CCCC3)C(=O)C3(CCNC3=O)C4)cc2F)CC1 (stereo not shown)"
result = 8.82

[[record]]
compound = "O=C1NCCC12Cc1cnc(Nc3ccc(N4CCNCC4)c(F)c3)nc1N(C1CCCC1)C2=O (stereo not shown)"
result = 8.68


* * *

# STUDY TARGET: CDK1/B (Homo sapiens, UniProt P06493)
# Sequence (P06493 whole entry, species assumed): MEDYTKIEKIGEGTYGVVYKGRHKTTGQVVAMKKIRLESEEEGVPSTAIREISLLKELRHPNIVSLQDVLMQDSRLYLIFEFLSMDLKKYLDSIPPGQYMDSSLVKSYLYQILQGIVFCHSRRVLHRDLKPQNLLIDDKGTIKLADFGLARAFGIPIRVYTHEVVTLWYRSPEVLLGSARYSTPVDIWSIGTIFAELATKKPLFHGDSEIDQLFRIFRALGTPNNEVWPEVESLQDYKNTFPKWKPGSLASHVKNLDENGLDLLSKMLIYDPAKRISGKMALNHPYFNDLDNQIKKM
# Sequence (P14635 whole entry partner, species assumed): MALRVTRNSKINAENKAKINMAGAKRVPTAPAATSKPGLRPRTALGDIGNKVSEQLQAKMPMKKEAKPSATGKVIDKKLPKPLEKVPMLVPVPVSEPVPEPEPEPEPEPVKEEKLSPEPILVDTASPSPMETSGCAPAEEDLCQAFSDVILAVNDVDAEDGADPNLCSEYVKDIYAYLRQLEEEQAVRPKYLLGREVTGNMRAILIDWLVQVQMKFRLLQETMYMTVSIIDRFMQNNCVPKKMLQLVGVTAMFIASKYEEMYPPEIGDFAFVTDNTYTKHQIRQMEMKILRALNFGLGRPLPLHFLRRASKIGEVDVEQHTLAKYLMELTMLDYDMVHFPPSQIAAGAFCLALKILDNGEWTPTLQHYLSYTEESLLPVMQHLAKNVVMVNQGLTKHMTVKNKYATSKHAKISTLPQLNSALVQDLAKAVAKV
# ASSAY: CDK inhibition assay (microfluidic LabChip, IC50 format)
# Type: biochemical
# RUN PARAMETERS: Table 4b, lower part
pIC50: −log10 of the molar value.
MEASURED ENDPOINT: pIC50

Answered examples (2):
[[record]]
compound = "C[C@]1(O)CC[C@@H](Nc2ncc3c(n2)N(C2CCCC2)C(=O)[C@]2(CCNC2=O)C3)CC1"
result = 5.66

[[record]]
compound = "CC(C)c1ccc(Nc2ncc3c(n2)N(C2CCCC2)C(=O)[C@]2(CCNC2=O)C3)cc1"
result = 6.25


a = O=C1NCC[C@@]12Cc1cnc(Nc3ccc(N4CCN(CCO)CC4)c(F)c3)nc1N(C1CCCC1)C2=O
b = CS(=O)(=O)c1ccc(Nc2ncc3c(n2)N(C2CCCC2)C(=O)[C@]2(CCNC2=O)C3)cc1
c = O=C1NCC[C@@]12Cc1cnc(Nc3ccc(N4CCN(CCO)CC4)c(F)c3)nc1N(C13CC(C1)C3)C2=O
-- ask // ranking: key=pIC50, reverse=True Your task in answering is to list the labels in the requested order.
-- reply b, a, c
(b: 7.42, a: 6.65, c: 5.54)

* * *

IC50 by entry:
# System: LIXAH HLE
# ASSAY: 2D cell proliferation assay (CellTiter-Blue)
# Assay type: cell-based
# RUN PARAMETERS: 72 h, three days of treatment, read-out: abs. IC50
Kindly answer with a numeric value in µM, unit omitted.

[[record]]
compound = "O=C1NCC[C@@]12Cc1cnc(Nc3ccc(N4CCNCC4)cc3F)nc1N(C1CCCC1)C2=O [Example D146]"
measured_endpoint = "IC50"
units = "µM"
result = 0.928


-- ask Note IC50 for the compound shown: CN(C)[C@H]1CCN(c2ccc(Nc3ncc4c(n3)N(C3CCCC3)C(=O)[C@]3(CCNC3=O)C4)nc2)C1 [Example D178]
-- reply 21.3

-- ask For the compound CC(C)N1CCN(c2ccc(Nc3ncc4c(n3)N(C3CCCC3)C(=O)[C@]3(CCNC3=O)C4)nc2)CC1 [Example D154] , give its measured IC50 value.
-- reply 21.5

-- ask Please report IC50 for the following compound: CN(C)CCOc1ccc(Nc2ncc3c(n2)N(C2CCCC2)C(=O)[C@]2(CCNC2=O)C3)cc1 [Example D179]
-- reply 0.103

* * *

# STUDY TARGET: CDK2-CYCLINA (Homo sapiens, UniProt P24941)
# Construct: purchased Millipore
# ASSAY: CDK inhibition assay (microfluidic LabChip, IC50 format)
# Type: biochemical
# RUN PARAMETERS: Table 4a; read-out: CDK2 CyclinA IC50
pIC50: −log10 of the molar value.
MEASURED ENDPOINT: pIC50

Worked set:
[[record]]
cpd_smiles = "CN1CCN(c2ccc(Nc3ncc4c(n3)N(C3CCCC3)C(=O)[C@]3(CCNC3=O)C4)nc2)CC1"
result = 5.61

[[record]]
cpd_smiles = "CN(C)[C@H]1CCN(c2ccc(Nc3ncc4c(n3)N(C3CCCC3)C(=O)[C@]3(CCNC3=O)C4)cc2)C1"
result = 7.22

[[record]]
cpd_smiles = "COc1cc(Nc2ncc3c(n2)N(C2CCCC2)C(=O)[C@]2(CCNC2=O)C3)ccc1N1CCN(C)CC1"
result = 7.47

[[record]]
cpd_smiles = "COc1cc(N2CCN(C(C)C)CC2)ccc1Nc1ncc2c(n1)N(C1CCCC1)C(=O)[C@]1(CCNC1=O)C2"
result = 5.54

[[record]]
cpd_smiles = "COc1cc(Nc2ncc3c(n2)N(C2CCCC2)C(=O)[C@]2(CCNC2=O)C3)ccc1N1CCN(C(C)C)CC1"
result = 7.52


1 = CN(C)[C@H]1CCN(C(=O)c2ccc(Nc3ncc4c(n3)N(C3CCCC3)C(=O)[C@]3(CCNC3=O)C4)cc2)C1
2 = O=C1NCC[C@@]12Cc1cnc(Nc3ccc(N4CCNCC4)cn3)nc1N(C1CCCC1)C2=O
3 = Cc1cc(N2CCN(C(C)C)CC2)ccc1Nc1ncc2c(n1)N(C1CCCC1)C(=O)[C@]1(CCNC1=O)C2
4 = O=C1NCC[C@@]12Cc1cnc(Nc3ccc(OCCN4CCCC4)c(F)c3)nc1N(C1CCCC1)C2=O
-- ask List items by pIC50 in falling order. // list labels; follow requested order
-- reply 1, 4, 3, 2
(1: 7.30, 4: 7.01, 3: 6.13, 2: 5.77)
